Test system: HCV 1a genotype replicon (strain H77, Huh-1a7 cells)
method: HCV replicon assay, qRT-PCR, genotype 1a replicon cell line (Huh-1a7)
Assay type: cell-based
test-conditions: Hepatitis C virus; HCV genotype 1a replicon, HCV RNA by qRT-PCR normalized to GAPDH RNA
measured-property: EC50

CC(C)CCCCN1CCOCC1 :: < 200 nM
